# ASSAY REMARKS: Storage stability by HPLC-UV (chemical purity, β-isomer content, total impurity content)
# Type: physicochemical
# TEST CONDITIONS: HPLC-UV, 0 days (after synthesis)
Where a name gives a salt, the structure may show the parent alone.
ASSAY METRIC: β-isomer content at 0 days (%)
Kindly answer with a numeric value in %, unit omitted.

Measured β-isomer content at 0 days, CON(C)Cc1ccc(O)c2c1C[C@H]1C[C@H]3[C@H](N(C)C)C(O)=C(C(N)=O)C(=O)[C@@]3(O)C(O)=C1C2=O [Crystalline Sulfate Salt] : 9

Measured β-isomer content at 0 days, CON(C)Cc1ccc(O)c2c1C[C@H]1C[C@H]3[C@H](N(C)C)C(O)=C(C(N)=O)C(=O)[C@@]3(O)C(O)=C1C2=O [Comparative Example 2] : 4.4

Measured β-isomer content at 0 days, CON(C)Cc1ccc(O)c2c1C[C@H]1C[C@H]3[C@H](N(C)C)C(O)=C(C(N)=O)C(=O)[C@@]3(O)C(O)=C1C2=O [Crystalline Mono Hydrochloride Salt] : 3.8

Measured β-isomer content at 0 days, CON(C)Cc1ccc(O)c2c1C[C@H]1C[C@H]3[C@H](N(C)C)C(O)=C(C(N)=O)C(=O)[C@@]3(O)C(O)=C1C2=O [Crystalline Mesylate Salt] : 3

Taken from patent US20200024223A1.
